# Tested System: T1, human/mouse CD137 chimera 1555
# T1 construct: on transfected FreeStyle 293-F cells
# Assay Details: flow cytometry, 293-F cells with CD137 chimera
# Procedure: The ability of each antibody to bind to a panel of human/mouse CD137 chimeras expressed on the surface of transfected cells was analyzed by flow cytometry. The chimeras were designed by exchanging domains or modules of the human CD137 with the corresponding mouse domain (FIG. 7). […] The transfected cells were incubated with CD137 antibodies and control antibodies, followed by incubation with anti-human IgG-PE (Jackson Immunoresearch) for detection and analyzed with FACS Verse (BD Biosciences). […]
Catalogue of binders with associated MFI/isotype control normalized to full-length human CD137
Quantity Measured: MFI/isotype control normalized to full-length human CD137

[[record]]
binder = "1200/1201 (antibody, V domains shown) VH: EVQLLESGGGLVQPGGSLRLSCAASGFTFSSYAMSWVRQAPGKGLEWVSGISGGGGGTYYADSVKGRFTISRDNSKNTLYLQMNSLRAEDTAVYYCARDVAYFDYWGQGTLVTVSS VL: DIQMTQSPSSLSASVGDRVTITCRASQSISSYLNWYQQKPGKAPKLLIYAASSLQSGVPSRFSGSGSGTDFTLTISSLQPEDFATYYCQQYYIPHTFGQGTKLEIK"
result = 0.24

[[record]]
binder = "1202/1203 (antibody, V domains shown) VH: EVQLLESGGGLVQPGGSLRLSCAASGFTFYGSSMSWVRQAPGKGLEWVSSIYYGSSGTYYADSVKGRFTISRDNSKNTLYLQMNSLRAEDTAVYYCARSYYGYFDYWGQGTLVTVSS VL: DIQMTQSPSSLSASVGDRVTITCRASQSISSYLNWYQQKPGKAPKLLIYAASSLQSGVPSRFSGSGSGTDFTLTISSLQPEDFATYYCQQYYTVVPFTFGQGTKLEIK"
result = 0.26

[[record]]
binder = "1204/1205 (antibody, V domains shown) VH: EVQLLESGGGLVQPGGSLRLSCAASGFTFSSYYMGWVRQAPGKGLEWVSGIGSYYGYTGYADSVKGRFTISRDNSKNTLYLQMNSLRAEDTAVYYCARAYYDYNYYYAYFDYWGQGTLVTVSS VL: DIQMTQSPSSLSASVGDRVTITCRASQSISSYLNWYQQKPGKAPKLLIYAASSLQSGVPSRFSGSGSGTDFTLTISSLQPEDFATYYCQQSVPHYPFTFGQGTKLEIK"
result = 0.28

[[record]]
binder = "1618/1619 (antibody, V domains shown) VH: EVQLLESGGGLVQPGGSLRLSCAASGFTFSYGSMYWVRQAPGKGLEWVSSISSGSGSTYYADSVKGRFTISRDNSKNTLYLQMNSLRAEDTAVYYCARSSYYGSYYSIDYWGQGTLVTVSS VL: DIQMTQSPSSLSASVGDRVTITCRASQSISSYLNWYQQKPGKAPKLLIYAASSLQSGVPSRFSGSGSGTDFTLTISSLQPEDFATYYCQQYYDNLPTFGQGTKLEIK"
result = 0.12

[[record]]
binder = "1626/1627 (antibody, V domains shown) VH: EVQLLESGGGLVQPGGSLRLSCAASGFTFGGYSMYWVRQAPGKGLEWVSSIGGYYYSTYYADSVKGRFTISRDNSKNTLYLQMNSLRAEDTAVYYCARSYYGSIDYWGQGTLVTVSS VL: DIQMTQSPSSLSASVGDRVTITCRASQSISSYLNWYQQKPGKAPKLLIYAASSLQSGVPSRFSGSGSGTDFTLTISSLQPEDFATYYCQQGTGYGPLTFGQGTKLEIK"
result = 0.29

[[record]]
binder = "1620/1621 (antibody, V domains shown) VH: EVQLLESGGGLVQPGGSLRLSCAASGFTFSGYYMYWVRQAPGKGLEWVSGISSSGSYTYYADSVKGRFTISRDNSKNTLYLQMNSLRAEDTAVYYCARSVGPYFDYWGQGTLVTVSS VL: DIQMTQSPSSLSASVGDRVTITCRASQSISSYLNWYQQKPGKAPKLLIYAASSLQSGVPSRFSGSGSGTDFTLTISSLQPEDFATYYCQQGVGPYTFGQGTKLEIK"
result = 0.32

